Measured pKi, listed per entry for reference.
target: Histamine H3 receptor (Rattus norvegicus, UniProt Q9QYN8); test: In vitro binding affinity against histamine H3 receptor from synaptosomes of rat cerebral cortex; format: subcellular, Brain
Sequence (Q9QYN8 whole entry): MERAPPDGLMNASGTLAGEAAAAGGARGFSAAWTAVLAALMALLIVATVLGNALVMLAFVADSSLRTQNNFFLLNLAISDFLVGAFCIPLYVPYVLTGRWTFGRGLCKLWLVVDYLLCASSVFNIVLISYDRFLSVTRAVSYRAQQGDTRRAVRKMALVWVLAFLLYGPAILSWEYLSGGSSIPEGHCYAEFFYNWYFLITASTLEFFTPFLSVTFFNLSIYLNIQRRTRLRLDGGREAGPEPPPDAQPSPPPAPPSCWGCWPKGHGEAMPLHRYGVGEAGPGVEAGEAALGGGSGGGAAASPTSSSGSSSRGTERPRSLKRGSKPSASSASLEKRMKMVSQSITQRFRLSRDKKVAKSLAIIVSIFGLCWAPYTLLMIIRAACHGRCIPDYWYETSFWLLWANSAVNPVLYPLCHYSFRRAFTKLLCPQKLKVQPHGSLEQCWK
Value format note: pKi is -log10 of concentration (mol/L); just state the number.

Recorded result, CC(C)(C)CC(C)(C)NC(=O)OCCCc1c[nH]cn1 , pKi: 7.38

Record CC(C)(C)CCOCCCc1c[nH]cn1 . Reported pKi: 8.00

Reported pKi ( CC(C)CCCOCCCc1c[nH]cn1 ) = 8.03

Others:
Looking up CC(C)CCOCCCc1c[nH]cn1 , I found its pKi recorded as 7.85

For reference, reported pKi for CC(C)NC(=O)OCCCc1c[nH]cn1.O=CC(=O)/C(O)=C/O stands at 7.09

Looking up CC(C)COCCCc1c[nH]cn1 , I see its pKi listed as 6.86

Value of measured pKi for the entry CC(C)(C)CNC(=O)OCCCc1c[nH]cn1.O.O=C(O)C(=O)O : 7.64

###

target: Histamine H3 receptor (Cavia porcellus); assay: Antagonist activity against histamine H3 receptor in guinea pig ileum; type: functional, tissue-based
VALUE TYPE: pkB
Please state the value as a number alone, without comment.

These solved cases illustrate the format of a correct answer.
The measured pkB associated with CC(C)CCCOCCCc1c[nH]cn1 reads 7.89

Consider CC(C)(C)CCNC(=O)OCCCc1c[nH]cn1.O=CC(=O)/C(O)=C/O . Its measured pkB is 7.53

New cases:
pkB in this record for CC(C)NC(=O)OCCCc1c[nH]cn1.O=CC(=O)/C(O)=C/O : 7.04

For CC(C)(C)CC(C)(C)NC(=O)OCCCc1c[nH]cn1 the compound record lists pkB as 7.58

Measured pkB of CCC(C)(C)NC(=O)OCCCc1c[nH]cn1 : 7.34

Summary for this compound, CC(C)CNC(=O)OCCCc1c[nH]cn1 : pkB is 7.39

Field pkB (entry CC(C)COCCCc1c[nH]cn1 ) reads 6.64

Measured pkB, CC(C)(C)CNC(=O)OCCCc1c[nH]cn1.O.O=C(O)C(=O)O : 7.4

# pkB of CC(C)(C)CCOCCCc1c[nH]cn1 = 7.38

Per the record, CC(C)(C)NC(=O)OCCCc1c[nH]cn1.O=CC(=O)/C(O)=C/O has pkB of 7.22

Quick note, pkB for CC(C)CCOCCCc1c[nH]cn1 landed at 7.03

###

target: Histamine H2 receptor (Cavia porcellus) (UniProt P47747); test: Antagonist activity against histamine H2 receptor in guinea pig atrium; assay type: functional, tissue-based; conditions: Cardiac atrium
Sequence (P47747 whole entry): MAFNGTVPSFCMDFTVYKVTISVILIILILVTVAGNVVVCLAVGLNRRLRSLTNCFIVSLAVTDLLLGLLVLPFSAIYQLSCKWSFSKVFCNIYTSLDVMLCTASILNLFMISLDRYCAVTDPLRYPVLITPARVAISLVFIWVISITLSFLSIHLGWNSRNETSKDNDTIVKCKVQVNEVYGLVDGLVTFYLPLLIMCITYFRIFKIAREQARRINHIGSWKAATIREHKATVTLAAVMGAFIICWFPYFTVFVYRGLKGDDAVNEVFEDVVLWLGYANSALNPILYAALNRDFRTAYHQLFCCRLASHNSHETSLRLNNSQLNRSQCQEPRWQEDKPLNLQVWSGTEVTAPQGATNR
VALUE TYPE: pkB
# output: bare number, no unit

Per the records, this compound ( CC(C)CCCOCCCc1c[nH]cn1 ) has pkB equal to 4.6

# pkB (compound: CC(C)(C)CNC(=O)OCCCc1c[nH]cn1.O.O=C(O)C(=O)O ) is 3.2

get_value(item= CC(C)(C)CCNC(=O)OCCCc1c[nH]cn1.O=CC(=O)/C(O)=C/O , readout=pkB) returns 4.3

The recorded pkB for CC(C)CCOCCCc1c[nH]cn1 is 3.5

Measured pkB, CC(C)(C)CC(C)(C)NC(=O)OCCCc1c[nH]cn1 : 4.3

Here is another compound to look at.
Form: compound = CCC(C)(C)NC(=O)OCCCc1c[nH]cn1 ; pkB = 3.5

###

target: Histamine H3 receptor (Mus musculus) (UniProt P58406); test: In vivo agonistic activity against histamine H3 receptor in mice after peroral administration; format: functional, organism-based
Sequence (P58406 whole entry): as the sequence (Q9QYN8 whole entry) above, with T15A, A286T, A290G, R387H, I389V counted along it
Form field: ED50 (one value per entry).
Enter your answer as a number in mg/kg; do not include the unit.

For orientation, consider the following solved cases.
The observed ED50 for CC(C)(C)CNC(=O)OCCCc1c[nH]cn1.O.O=C(O)C(=O)O when tested with Histamine H3 receptor (Mus musculus) (UniProt P58406) stands at 0.48

Item CC(C)(C)CCOCCCc1c[nH]cn1 was tested on Histamine H3 receptor (Mus musculus) (UniProt P58406); the reported ED50 is 0.29

Recorded ED50 for N=C(N)SCCc1c[nH]cn1 on Histamine H3 receptor (Mus musculus) (UniProt P58406) was 1

The reported Histamine H3 receptor (Mus musculus) (UniProt P58406) ED50 of CC(C)CCOCCCc1c[nH]cn1 is 0.51

The recorded ED50 with Histamine H3 receptor (Mus musculus) (UniProt P58406) for CC(C)NC(=O)OCCCc1c[nH]cn1.O=CC(=O)/C(O)=C/O was 15

The reported Histamine H3 receptor (Mus musculus) (UniProt P58406) ED50 of CCC(C)(C)NC(=O)OCCCc1c[nH]cn1 is 0.2

Let me check: CC(C)(C)NC(=O)OCCCc1c[nH]cn1.O=CC(=O)/C(O)=C/O , system Histamine H3 receptor (Mus musculus) (UniProt P58406), measured ED50 is 0.9

Then there is this molecule:
Record CC(C)CCCOCCCc1c[nH]cn1 has Histamine H3 receptor (Mus musculus) (UniProt P58406) ED50 equal to 0.15

###

biological target: UniProtKB P31389; assay: Antagonist activity against histamine H1 receptor in guinea pig ileum; assay type: functional, tissue-based
Sequence (P31389 whole entry): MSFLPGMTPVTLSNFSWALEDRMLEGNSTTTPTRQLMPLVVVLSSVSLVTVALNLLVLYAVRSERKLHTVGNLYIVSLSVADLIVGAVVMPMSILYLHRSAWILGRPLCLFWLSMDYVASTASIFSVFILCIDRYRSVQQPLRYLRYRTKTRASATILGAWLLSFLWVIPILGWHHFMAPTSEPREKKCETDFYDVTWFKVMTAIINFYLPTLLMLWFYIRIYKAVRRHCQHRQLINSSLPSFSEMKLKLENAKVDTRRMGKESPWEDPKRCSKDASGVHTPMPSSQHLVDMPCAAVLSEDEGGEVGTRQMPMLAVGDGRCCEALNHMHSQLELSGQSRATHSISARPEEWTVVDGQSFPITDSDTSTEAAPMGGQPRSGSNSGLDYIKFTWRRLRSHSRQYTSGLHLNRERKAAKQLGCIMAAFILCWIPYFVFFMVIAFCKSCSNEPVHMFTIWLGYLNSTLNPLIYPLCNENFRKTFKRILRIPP
VALUE TYPE: pkB

Use these answered entries as a reference point.
Per the record, CC(C)(C)CCOCCCc1c[nH]cn1 has pkB of 4.5

Reported pkB of CC(C)CCCOCCCc1c[nH]cn1 : 5

Summary for this compound, CC(C)(C)NC(=O)OCCCc1c[nH]cn1.O=CC(=O)/C(O)=C/O : pkB is < 4

---
Per the records, this compound ( CC(C)(C)CNC(=O)OCCCc1c[nH]cn1.O.O=C(O)C(=O)O ) has pkB equal to 3.5

Memo: CC(C)NC(=O)OCCCc1c[nH]cn1.O=CC(=O)/C(O)=C/O , reported pkB: < 4

Kindly note the recorded pkB for CC(C)CNC(=O)OCCCc1c[nH]cn1 , which is < 4.5

Item: CCC(C)(C)NC(=O)OCCCc1c[nH]cn1 | pkB: 4.8

Entry CC(C)(C)CCNC(=O)OCCCc1c[nH]cn1.O=CC(=O)/C(O)=C/O , pkB reported as 4.2

Record summary for CC(C)(C)CC(C)(C)NC(=O)OCCCc1c[nH]cn1 : reported pkB = 6

Noted for CC(C)CCOCCCc1c[nH]cn1 : its pkB reads 4.5

###

molecular target: Histamine H3 receptor (Rattus norvegicus); test: Antagonist activity against histamine H3 receptor on synaptosomes of rat cerebral cortex; type: functional, subcellular, Brain
# Ki per record follows
Numbers only here, please. The scale is nM.

Ki value, target or system Histamine H3 receptor (Rattus norvegicus), for CC(C)CCCOCCCc1c[nH]cn1 : 9.33

Entry CC(C)CCOCCCc1c[nH]cn1 : Ki on Histamine H3 receptor (Rattus norvegicus) = 14.1

Next:
Item CC(C)(C)CNC(=O)OCCCc1c[nH]cn1.O.O=C(O)C(=O)O ; assay system Histamine H3 receptor (Rattus norvegicus); Ki reported as 22.9

###

target: Histamine H2 receptor (Cavia porcellus) (UniProt P47747); test: Antagonist activity against histamine H2 receptor in guinea pig atrium; assay type: functional, tissue-based; conditions: Cardiac atrium
Recorded pkB for the following compounds

Known results for compounds:
CC(C)(C)NC(=O)OCCCc1c[nH]cn1.O=CC(=O)/C(O)=C/O has a reported pkB of < 4

Entry CC(C)CNC(=O)OCCCc1c[nH]cn1 — recorded pkB = < 4

What the record says about CC(C)(C)CCOCCCc1c[nH]cn1 : pkB is < 4

Switching to the query record.
Kindly note the recorded pkB for CC(C)NC(=O)OCCCc1c[nH]cn1.O=CC(=O)/C(O)=C/O , which is < 4.3
